Measured z-score, listed per entry.
Experiment: fission yeast growth modulation, primary screen, strain 972, OD600, 24 h, no modulator (AID 1090);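 further: basal condition with compound alone and no growth modifier present; test concentration not given here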
Details: S. pombe 972 growth, higher = more signal, called active from +8 up or from −8 down
Number only, no unit.

Would you mind telling me what z-score value was observed for CC[C@@H](O[Si](C#C[Si](C(C)C)(C(C)C)C(C)C)(C(C)C)C(C)C)c1cn(Cc2cccc(Cl)c2)nn1 ?
0.719

Check CN1C(=O)C2C=CC(C(O)c3ccc([N+](=O)[O-])cc3)N(Nc3ccccc3)C2C1=O (stereo not given) too.
-0.184

Further cases:
Would you mind telling me what z-score value was observed for C=CCC(OC(C)=O)[C@@H]1[C@@H](N(Cc2ccc(-c3ccccc3)cc2)C(=O)Cc2ccc(OC)cc2)c2cc(OCCCO)ccc2N1C(=O)c1ccc2ccccc2c1 (stereo not given in full) ?
0.121

Check O=C1N(Cc2ccccc2)c2ccccc2C[C@@]12N=C(c1ccc(OCCCO)cc1)O[C@H]2c1ccccc1 too.
-2.61

Check CC(C)(C)OC(=O)N1[C@@H](C=C(Br)Br)COC1(C)C too.
-6.61
